The measurements presented in this section are drawn from patent US20190328837A1.

- study-target: T1, wild-type CNTFR-Fc (human, UniProt P26992 23-342)
- T1 construct: also called wtCNTFR-Fc; not shown: Fc domain; captured with anti-mouse Fc antibody
- T1 sequence: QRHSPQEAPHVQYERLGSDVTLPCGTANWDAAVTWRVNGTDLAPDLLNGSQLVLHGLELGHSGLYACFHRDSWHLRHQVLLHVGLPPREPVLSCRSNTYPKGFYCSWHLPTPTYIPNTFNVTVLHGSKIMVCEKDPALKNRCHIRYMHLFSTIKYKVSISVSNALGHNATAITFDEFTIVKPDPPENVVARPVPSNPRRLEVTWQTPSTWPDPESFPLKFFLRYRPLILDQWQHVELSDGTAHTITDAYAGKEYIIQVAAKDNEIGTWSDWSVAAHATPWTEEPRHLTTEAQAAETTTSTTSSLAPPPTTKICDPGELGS
- experimental-protocol: sandwich ELISA, soluble CLCF1 titrated against 2 nM CNTFR-Fc, anti-mouse-Fc capture, anti-CLCF1 detection
assay-endpoint: EC50 (read off the curve)

Summary for this binder, recombinant soluble wild-type human CLCF1 (ligand, Expressed in E. coli from pET28b and purified from inclusion bodies by RP-HPLC; also called wtCLCF1; wild-type CLCF1) LNRTGDPGPGPSIQKTYDLTRYLEHQLRSLAGTYLNYLGPPFNEPDFNPPRLGAETLPRATVDLEVWRSLNDKLRLTQNYEAYSHLLCYLRGLNRQAATAELRRSLAHFCTSLQGLLGSIAGVMAALGYPLPQPLPGTEPTWTPGPAHSDFLQKMDDFWLLKELQTWLWRSAKDFNRLKKKMQPPAAAVTLHLGAHGF : EC50 (read off the curve) is ~80 nM
